System: SF-539
Assay: NCI tumour cell line growth inhibition, 48 h
Calls of active or inactive are those of the source. Cut-off read from the data, not from the text of the source: active = GI50 up to about 1.1 µM and inactive = higher.
Reply using exactly one outcome from 1 (active), 0 (inactive)

Molecule | Class Assignment
CN(C)C1C(CO)OC(n2cnc3c(N)ncnc32)C1O (stereo unspecified) | 0
Nc1nc(=O)n(C2CC(O)C(CO)O2)c2nc(-c3ccc(-c4ccccc4)cc3)cnc12 (stereo unspecified) | 0
COC(=O)C1C(C(=O)OC)C2(OC)c3ccccc3-c3ccccc3C12 (stereo unspecified) | 0
CC(=O)c1ccc(-c2ccc(C(C)=O)s2)s1 | 0

Request: Could you check what this test reported for "Cc1cnc2[nH]c(-c3cccc(F)c3)cc(=O)c2c1" ?
Response: 1

Request: Could you check what this test reported for "Clc1ccccc1-c1nn2c(CCCCCCCCc3nnc4sc(-c5ccccc5Cl)nn34)nnc2s1" ?
Response: 0

Request: Could you check what this test reported for CC(=O)C(CN1CCCCC1)C(c1ccccc1)c1c(O)c2ccccc2oc1=O (stereo unspecified) ?
Response: 0

Request: Could you check what this test reported for "COc1cc2c(cc1O)NC(=O)[C@@H]1CCCN1C2=O" ?
Response: 0

Request: Could you check what this test reported for "CCOC(=O)c1c(N)nn2c1cc1cccccc12" ?
Response: 0

Request: Could you check what this test reported for "CCOP(=O)(OCC)/C(C#N)=C/c1[nH]cnc1C" ?
Response: 0

Request: Could you check what this test reported for CC1C=C(OC(=O)c2ccccc2)C(=O)C(n2cc(F)c(=O)[nH]c2=O)O1 (stereo unspecified) ?
Response: 0

---

Test system: 786-0
Experiment: NCI tumour cell line growth inhibition, 48 h
Calls of active or inactive are those of the source. Rule as the data show it: active = GI50 up to about 1.1 µM and inactive = higher.
Reply using exactly one outcome from Y for active, N for inactive

Request: Could you check what this test reported for CCOC(=O)C(C(=O)Cc1ccccc1)c1ccccc1 (stereo not given) ?
Response: N

Request: Could you check what this test reported for NC(CCCCNCc1ccccc1O)C(=O)O (stereo not given) ?
Response: N

Request: Could you check what this test reported for "N#Cc1c(-c2ccccc2)cc(Nc2ccc(Cl)cc2)n2c1nc1ccccc12" ?
Response: N

Request: Could you check what this test reported for "Clc1nc(-[n+]2ccc(-c3ccncc3)cc2)nc(Nc2ccccc2)c1Cl" ?
Response: N

Request: Could you check what this test reported for CCN(CC)c1cccc2c1C1(O)CCC3(CC21)OCCCCO3 (stereo not given) ?
Response: N

Request: Could you check what this test reported for "CCCC(=O)Nc1cc(/C=C/C(=O)N2C[C@@H]3C[C@]34C2=CC(=O)c2[nH]cc(C)c24)n(C)c1" ?
Response: Y

Request: Could you check what this test reported for "Cc1cccc(NC(=O)CSc2nnc(Cc3ccccc3)o2)c1" ?
Response: N

Request: Could you check what this test reported for "COc1ccc(/C=C/c2cc(OC)c(OC(C)=O)c(OC)c2)cc1" ?
Response: N

Request: Could you check what this test reported for FC(F)(F)c1ccc(C2=N/S(c3ccccc3)=N\C(c3ccc(C(F)(F)F)cc3)=N/S(c3ccccc3)=N\2)cc1 (stereo not given) ?
Response: N

Request: Could you check what this test reported for NC(=S)C1=C(N)Oc2c(c(=O)oc3ccccc23)C1c1ccc(Br)cc1 (stereo not given) ?
Response: N

---

System: DMS-273
Assay: NCI tumour cell line growth inhibition, 48 h
Calls of active or inactive are those of the source. Cut-off read from the data, not from the text of the source: active = GI50 up to about 1.1 µM and inactive = higher.
Reply using exactly one outcome from T (active), F (inactive)

Compound | Target System | Class Assignment
O=CN1CCN(C=S)CC1 | DMS-273 | F
CCCc1n[nH]c(CCC(=O)N(Cc2ccccc2)Cc2ccccc2)c1CC | DMS-273 | F
O=C1C=C(Nc2cccnc2)c2ccccc2C1=O | DMS-273 | F
Cc1cc(C)nc(NS(=O)(=O)c2ccc(Nc3c4ccccc4nc4c(C(=O)NCCN(C)C)cccc34)cc2)n1 | DMS-273 | T
O=C(Cc1nc2ccccc2s1)C(=O)Nc1ccc(Cl)cc1 | DMS-273 | F
O=S(=O)(N/N=C/c1ccc(Cl)cc1Cl)c1ccccc1 | DMS-273 | F
CCNC(=O)O/N=C1\CCC2[C@@H]3CC=C4C[C@@H](OC5CCCCO5)CC[C@]4(C)C3CC[C@]12C (stereo partly specified) | DMS-273 | F
COc1cc2c(cc1O)N=C[C@@H]1CC[C@@H](O)N1C2=O.COc1cc2c(cc1O)N=C[C@@H]1CC[C@H](O)N1C2=O | DMS-273 | F
CC1C=C(OC(=O)c2ccccc2)C(=O)C(n2cc(F)c(=O)[nH]c2=O)O1 (stereo unspecified) | DMS-273 | F
CCCNCCCCC(NC(C)=O)C(=O)NCc1ccccc1 (stereo unspecified) | DMS-273 | F

Request: Could you check what this test reported for "CC(C)(C)c1ccc2c(c1)OP1(Oc3c(Cl)cc(Cl)c4cccnc34)(O2)Oc2ccc(C(C)(C)C)cc2O1" ?
Response: F

Request: Could you check what this test reported for "COc1cc(C(=O)NO)ccc1O" ?
Response: F

Request: Could you check what this test reported for COC1CC(n2cc(F)c(N)nc2=O)OC1CO (stereo unspecified) ?
Response: F

Request: Could you check what this test reported for "CC(=O)c1c(O)c2c([nH]c1=O)CCCC2" ?
Response: F

Request: Could you check what this test reported for "Cc1cccc(C(C)(C)C)c1NC(=O)CCc1n[nH]c(=S)o1" ?
Response: F

Request: Could you check what this test reported for CSC(C1c2ccccc2N(c2ccc(C)cc2)C2=NC(=O)N(C)C(=O)C21Cl)S(=O)(=O)c1ccc(C)cc1 (stereo unspecified) ?
Response: F

Request: Could you check what this test reported for CCC1C(C(=O)Nc2ccccc2C)=C(C)NC(C)=C1c1ccccc1C (stereo unspecified) ?
Response: F

Request: Could you check what this test reported for "CCOC(=O)c1c(/C=N\Nc2ccccc2)nc2ccccc2c1-c1ccccc1" ?
Response: F

Request: Could you check what this test reported for CCOC(=O)C12CCCC1(O)N(NC(=O)OC(C)(C)C)C(C)=C2C(=O)OC (stereo unspecified) ?
Response: F

Request: Could you check what this test reported for "CN(CCCN1C(=O)c2cccc3cc([N+](=O)[O-])cc(c23)C1=O)CCN(C)CCCN1C(=O)c2cccc3cc([N+](=O)[O-])cc(c23)C1=O" ?
Response: F

Request: Could you check what this test reported for Cc1ccc2c(c1)SC(c1cc3c(cc1Br)OCO3)S2 (stereo unspecified) ?
Response: F

---

System: SF-268
Test: NCI tumour cell line growth inhibition, 48 h
Active and inactive are the calls of the source. Cut-off read from the data, not from the text of the source: active = GI50 up to about 1.1 µM and inactive = higher.
Reply using exactly one outcome from active, inactive

Compound | Class Assignment
COC1/C=C/C(C)C(C(C)C(OC)C(C)CCC(=O)C(C)C(CC(=O)O)OC)OC(=O)/C=C/C=C(\C)CC(OC)CC2=CC(=O)O[C@H](C2)C(C)C(OC)CC(OC)/C=C/C(C)C(OC)C1 (stereo not given in full) | active

Request: Could you check what this test reported for "S=C(/N=c1/sc(Nc2ccccc2)nc2sc3c(c12)CCCC3)Nc1ccccc1" ?
Response: inactive

Request: Could you check what this test reported for "CCOC(=O)c1c(/C=N\Nc2ccccc2)nc2ccccc2c1-c1ccccc1" ?
Response: inactive

Request: Could you check what this test reported for "COc1cc(/C=C/C(=O)C2(C(=O)/C=C/c3cc(OC)c(OC)c(OC)c3)CCCCC2)cc(OC)c1OC" ?
Response: inactive

Request: Could you check what this test reported for CCOc1c(OC)cc(-c2nc3n(n2)C(=O)C(CC)S3)cc1OC (stereo not given) ?
Response: inactive

---

Test system: UO-31
Assay: NCI tumour cell line growth inhibition, 48 h
Activity calls are given as the source filed them. Rule as the data show it: active = GI50 up to about 1.1 µM and inactive = higher.
Reply using exactly one outcome from active, inactive

Sample answers from the record:
Compound | Target System | Class Assignment
CC(C)OC(=O)c1ccc(CCC2=CC(=O)C(Br)=CC2=O)cc1 | UO-31 | inactive
Cc1ccc([N+](=O)[O-])cc1NC(=O)/C(CC(=O)c1sc(C(N)=S)nc1C)=N\N | UO-31 | inactive
CC(=O)c1ccc(NC(=O)C(=O)Nn2c(S)nc3ccccc3c2=O)cc1 | UO-31 | inactive
COc1cc2cccc(/N=C\c3ccccc3Cl)c2cc1OC | UO-31 | inactive
N#Cc1c(NC(=S)Nc2ccccc2)sc2c1CCCC2 | UO-31 | inactive
O=C(Nc1cccc2cnccc12)c1cc2c(cc1Cl)Sc1nccn1S2(=O)=O | UO-31 | inactive
COc1ccc(NC(=O)CC2S/C(=N\c3ccccc3C)NC2=O)c([N+](=O)[O-])c1 (stereo unspecified) | UO-31 | inactive
COc1ccc(/C(Cl)=C(\C#N)c2ccc(OC)c(OC)c2)cc1OC | UO-31 | inactive
Nc1nc2cc3nc(N)c(N)nc3cc2nc1N | UO-31 | inactive
COc1ccc2c[n+](C)c3c4cc(OC)c(OC)cc4ccc3c2c1 | UO-31 | inactive

Request: Could you check what this test reported for CC[C@]1(O)CC(OC2CC(N(C)C)C(O)C(C)O2)c2c(cc3c(c2O)C(=O)c2c(O)cccc2C3=O)[C@@H]1C(=O)OC (stereo partly specified) ?
Response: active

Request: Could you check what this test reported for "CC(C)(C)c1ccc2c(c1)OP1(Oc3c(Cl)cc(Cl)c4cccnc34)(O2)Oc2ccc(C(C)(C)C)cc2O1" ?
Response: inactive

Request: Could you check what this test reported for "Fc1ccc(C(OCCN2CC3CCC(C2)N3CCCc2ccccc2)c2ccc(F)cc2)cc1" ?
Response: inactive

Request: Could you check what this test reported for Nc1nc(Cl)nc2c1ncn2C1CC(O)C(CO)O1 (stereo unspecified) ?
Response: active

Request: Could you check what this test reported for "CC(C)(CO)CNc1cc(Cl)nc(N)n1" ?
Response: inactive

Request: Could you check what this test reported for NC1=CC(C(=O)c2ccncc2)c2nc3ccccc3nc21 (stereo unspecified) ?
Response: inactive

Request: Could you check what this test reported for "CN(Cc1cccc2ccsc12)/N=C\c1ccc(Cl)cc1" ?
Response: inactive
